test: in vitro; settings: rat, plasma;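 also: peptides incubated in vitro in rat plasma at 37 °C up to 6 h, intact peptide quantified by LC-MS versus internal standard, expressed relative to pre-incubation baseline (100%)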
Bridges are numbered along the chain shown (N, C = ends). Where no end group is shown, it is not given here.
Readout: remaining at 2 h (%)

>>> experimental_result("CDATCQFRKAIDDCARQAHHSNVPGSVFKACMKQKKKEWKAGH (disulfide 1-5, 14-31) [SEQ ID NO 151]")
104
>>> experimental_result("GCDATCQFRKAIDDCVRQAHHSNVPGSVFKACMKQKKKEWKAGH (disulfide 2-6, 15-32) [SEQ ID NO 88]")
84
>>> experimental_result("CDATCQFRKAIDDCYYYAMHSNVPGSVWKACMKQKKKEFKAG-NH2 (disulfide 1-5, 14-31) [SEQ ID NO 150]")
92.1
>>> experimental_result("CDATCQFRKAIDDCHLLAWHANVPGSVFKACMKQKKKEFKAG-NH2 (disulfide 1-5, 14-31) [SEQ ID NO 140]")
93.4
>>> experimental_result("CDATCQFRKAIDDCYYRSWHSNVPGSVFKACMKQKKKEWKAG-NH2 (disulfide 1-5, 14-31) [SEQ ID NO 77]")
104
>>> experimental_result("CDATCQFRKAIDDCQKQAHHSNVPGSVFKACMKQKKKEFKAGY (disulfide 1-5, 14-31) [SEQ ID NO 164]")
108
